- System: HT29 colon
- test_description: NCI-60 one-dose screen, 48 h
- measurement_setup: 10 µM unless noted
- Procedure: Growth inhibition of the HT29 human tumor cell line is measured as a screen for anti-cancer activity. Cells are grown in 96 well plates and exposed to the test compound for 48 hours. Compounds are tested at a single concentration, which is 10^-5 M for most compounds. The reported endpoint is percent growth (GI% or GIPRCNT), where numbers from 0 - 100% represent growth inhibition, and numbers from -100% - 0 represent cell death. For example, a value of 40 represents 60% growth inhibition. […]
About 83,000 compounds went through this panel and 20% of them were active in at least one assay; those are over-represented in the sample as a whole. Calls of active or inactive are those of the source. Rule for the calls: active = growth percent below 10; inactive = the rest.
Write down one outcome, taken from true = active, false = inactive

These recorded examples may help you get a feel for the data.
CCOC(=O)c1c(C)c2c(n1C)CSc1cc(C(=O)c3ccccc3)c(=O)[nH]c1-2 = false
COc1cc(OC)c2sc(-c3ccc(-n4cncc4-c4ccc(OC)c(OC)c4)cc3)nc2c1 = false
O=[N+]([O-])c1ccc(N/N=C(/C(=N/Nc2ccc([N+](=O)[O-])cc2)c2ccccc2)c2ccccc2)cc1 = false

Query: How was `COc1cc2oc(-c3cccc(NC(=O)c4cccc(Br)c4)c3)cc(=O)c2c(OC)c1OC` classified in this test?
Result: false

Query: How was `COc1ccc2[nH]cc(-c3nc(-c4c[nH]c5ccncc45)cs3)c2c1` classified in this test?
Result: true

Query: How was O=C1CC(N2C(=O)/C(=C/C(Cl)=C\c3ccc([N+](=O)[O-])cc3)SC2=S)C(=O)N1c1ccc(Cl)cc1 (stereo not drawn) classified in this test?
Result: true

Query: How was `COC(=O)c1c2c(c(C)[n+]([O-])c1C)C(=O)C=C(NCc1ccc(OC)cc1)C2=O` classified in this test?
Result: true

Query: How was `Cc1ccc(/C=C2\CN(C(=O)OC(C)(C)C)C/C(=C\c3ccc(C)cc3)C2=O)cc1` classified in this test?
Result: true

Query: How was `COc1ccc(-c2nn(-c3ccccc3)cc2/C=C2/SC(=S)N(C)C2=O)cc1` classified in this test?
Result: false

====

- Test system: SK-MEL-5 melanoma
- test_description: NCI-60 one-dose screen, 48 h
- measurement_setup: 10 µM unless noted
- Procedure: Growth inhibition of the SK-MEL-5 human tumor cell line is measured as a screen for anti-cancer activity. Cells are grown in 96 well plates and exposed to the test compound for 48 hours. Compounds are tested at a single concentration, which is 10^-5 M for most compounds. The reported endpoint is percent growth (GI% or GIPRCNT), where numbers from 0 - 100% represent growth inhibition, and numbers from -100% - 0 represent cell death. For example, a value of 40 represents 60% growth inhibition. […]
The panel holds about 83,000 compounds, 20% with a hit somewhere; the sample as a whole holds those more often. Calls of active or inactive are those of the source. Rule for the calls: active = growth percent below 10; inactive = the rest.
Write down one outcome, taken from active, inactive

These recorded examples may help you get a feel for the data.
Fc1cc2c(cc1Cl)N(c1ncnc3ccc(-c4cnc5[nH]ncc5c4)cc13)CC2 = inactive
O=C(CCc1nnc(Cn2cnc3nc[nH]c3c2=O)o1)c1nc2ncccc2[nH]1 = inactive
C=C1CC[C@@H]2[C@](C)(COC(C)=O)[C@H](OC(C)=O)CC[C@@]2(C)[C@@H]1CC(Sc1ccccc1)C1=CCOC1=O (stereo not given in full) = inactive
N#CC1CCc2c(c(-c3cn[nH]c3C(F)(F)F)nc3c(F)cc4[nH]ncc4c23)C1 (stereo not given) = active
Cc1cc2c(O)c(-c3cc(Cl)ccc3Cl)c3sc(=O)oc3c2cc1C = inactive
COc1cc(-c2cc(-c3cccs3)c(C#N)c(N3CCOCC3)n2)cc(OC)c1OC = inactive
O=C(COc1ccc(-c2nc3ccccc3[nH]2)cc1)N=Nc1c(O)[nH]c2ccc(Cl)cc12 = inactive
O=C1NC(=O)c2c1c1c3ccccc3ccc1c1[nH]c3ccc(Br)cc3c21 = active

Query: How was `COc1ccc2c(O)c(/C=C3\N=Nc4ccccc43)oc2c1C[C@@H]1CCNC[C@H]1F` classified in this test?
Result: inactive

Query: How was `O=C1Nc2ccc(Br)cc2/C1=N/c1n[nH]c(=S)s1` classified in this test?
Result: inactive

Query: How was `O=C1/C(=C/c2ccccc2Br)COc2ccc(O)c(O)c21` classified in this test?
Result: inactive

Query: How was `O=C(NCc1ccccc1)Nc1ccccc1CNc1nc(Nc2ccc(OCCN3CCCC3)cc2)ncc1Cl` classified in this test?
Result: inactive

Query: How was `O=C1/C(=C\c2cn(-c3ccccc3)nc2-c2ccc(-c3cccs3)cc2)CCc2ccccc21` classified in this test?
Result: inactive

====

- System: NCI-H522 lung
- test_description: NCI-60 one-dose screen, 48 h (100 = growth as untreated, 0 = no growth, -100 = all killed)
- measurement_setup: 10 µM unless noted
Compounds without any hit were thinned out: in the full panel of roughly 83,000, 20% have a hit.
observed_property: growth (%)
// units = %; emit number, no label

// growth lookup, compound = `CNC(=O)c1cc(Oc2ccc3c(c2)sc2nc(-c4cc(OC)c(OC)c(OC)c4)cn23)ccn1` , result: 50.4

// growth lookup, compound = `Cc1cccc(Cl)c1NC(=O)c1ccc2nc(NC(=O)NCCN(C)C)sc2c1` , result: 77.5

// growth lookup, compound = `CCN(CC)CCNC(=O)c1cn2ncnc(Oc3ccc(NC(=O)Nc4ccc(Cl)c(C(F)(F)F)c4)c(F)c3)c2c1C` , result: -52.3

// growth lookup, compound = `Cc1ccccc1Cn1cnc2ccc(-c3cc(NC(=O)c4ccc(NC5CCN(C)CC5)cc4)n[nH]3)cc21` , result: 57.2

// growth lookup, compound = `O=C(Nc1cccc([N+](=O)[O-])c1)c1cc2ccccc2cc1O` , result: -3.91

// growth lookup, compound = COc1cc(NC(C)CCCNC(C)C)c2ncccc2c1OC (centres undefined) , result: 69.6

// growth lookup, compound = `COC(=O)/C=C1/SC(=Nc2ccc(C)cc2)N(CCc2c[nH]c3ccc(O)cc23)C1=O` , result: 42.5

// growth lookup, compound = `CC1=NN(c2nc(SCC(=O)Nc3nc4ccc(C)cc4s3)nc(-c3ccccc3)c2C#N)C(=O)C1` , result: 91.1

// growth lookup, compound = `Cc1cc(N)c2cc(NC(=O)/C=C\c3ccccc3Cl)ccc2n1` , result: -70.7

// growth lookup, compound = `COC(=O)/C(CCC=C(C)C)=C1\[C@@H](OC(C)=O)C[C@@]2(C)[C@H]1C[C@@H](O)[C@H]1[C@@]3(C)CC[C@H](NCCN)[C@@H](C)[C@@H]3CC[C@@]12C` , result: 86.9

// growth lookup, compound = `CC(C)OC(=O)c1ccc2[nH]c(O)c(C(=Nc3ccc(N(C)C(=O)CN4CCN(C)CC4)cc3)c3ccccc3)c2c1` , result: -60.6

// growth lookup, compound = `Brc1c2c(c(Br)c3ccccc13)CCCC2` , result: 75.5

// growth lookup, compound = `c1cc2[nH]ncc2cc1-c1nc2ccc3[nH]ncc3c2c2c1CCCC2` , result: -28.2

// growth lookup, compound = C[C@]12C=CC(=O)C=C1CCC1C2[C@@H](O)C[C@@]2(C)C1CC[C@]2(O)C(=O)COC(=O)CCC(=O)O (some centres undefined) , result: 103

====

- System: NCI/ADR-RES ovarian
- test_description: NCI-60 one-dose screen, 48 h
- measurement_setup: 10 µM unless noted
The panel holds about 83,000 compounds, 20% with a hit somewhere; the sample as a whole holds those more often. Calls of active or inactive are those of the source. Rule for the calls: active = growth percent below 10; inactive = the rest.
Write down one outcome, taken from YES for active, NO for inactive

These recorded examples may help you get a feel for the data.
COc1cc(OC)c2sc(-c3ccc(-n4cncc4-c4ccc(OC)c(OC)c4)cc3)nc2c1 = NO
O=C1c2cccc3cccc(c23)C(=O)N1N1C(=O)c2cccc3c(N4CCOCC4)ccc(c23)C1=O = NO
NC(=O)CCC(C(=O)O)N1C(=O)c2ccc(O)cc2C1=O (centres undefined) = NO
CCc1ccc(Oc2cn[nH]c2-c2ccc(OCCc3ccc(F)cc3)cc2O)cc1 = NO
O=C1Nc2ccc(I)cc2C1=O = NO

Query: How was `S=C1CCSC(=S)N1CCCN1C(=S)CCSC1=S` classified in this test?
Result: NO

====

- System: U251 CNS
- test_description: NCI-60 one-dose screen, 48 h (100 = growth as untreated, 0 = no growth, -100 = all killed)
- measurement_setup: 10 µM unless noted
- Experimental: Growth inhibition of the U251 human tumor cell line is measured as a screen for anti-cancer activity. Cells are grown in 96 well plates and exposed to the test compound for 48 hours. Compounds are tested at a single concentration, which is 10^-5 M for most compounds. The reported endpoint is percent growth (GI% or GIPRCNT), where numbers from 0 - 100% represent growth inhibition, and numbers from -100% - 0 represent cell death. For example, a value of 40 represents 60% growth inhibition. […]
Compounds without any hit were thinned out: in the full panel of roughly 83,000, 20% have a hit.
Some molecules, each annotated with its measured growth.
// units = %; emit number, no label

Cc1cccnc1NC(=S)Nc1ncccc1C = 99.7
COC1=CC(c2ccc[nH]2)=N/C1=C\c1[nH]c(C)c(C(=O)OCc2ccccc2)c1C = -47

// growth lookup, molecule = `Cc1nc(-c2ccccc2)cc2c(O)c(C(=O)NN)[nH]c(=O)c12` , result: 106

// growth lookup, molecule = `COc1cc(-c2nc3cc(Cl)c(Cl)cc3[nH]2)ccc1OCC(=O)N=Nc1c(O)[nH]c2ccc([N+](=O)[O-])cc12` , result: 22

// growth lookup, molecule = `COc1cc(-c2csc(NC(=O)c3cc(-n4cnc(C)c4)cc(C(F)(F)F)c3)n2)cc(OC)c1OC` , result: 56.9

// growth lookup, molecule = `C=CCc1c2c(c(OC)c3ccoc13)C(=O)/C(=C/c1ccccc1OC)O2` , result: 46.2

// growth lookup, molecule = `Cc1cc2c(O)c(-c3cccc(Cl)c3)c3sc(=O)oc3c2cc1C` , result: 21.9

// growth lookup, molecule = `COc1ccc(NC(=O)c2sc3nc(C)c(C(=O)/C=C/c4cccc(OC)c4)cc3c2N)cc1` , result: 1.61

// growth lookup, molecule = `O=C1c2cccnc2C(=O)c2c1c(C(=O)NCCCN1CCCCC1)c1ccccn21` , result: -48.4

// growth lookup, molecule = `N#C/C(=C/c1ccc([N+](=O)[O-])cc1)n1nnc2cc(F)c(F)cc21` , result: 59

// growth lookup, molecule = `COc1cc(CNS(=O)(=O)c2ccc(C)cc2)ccc1OCc1cn(-c2ccc(Br)cc2)nn1` , result: 101

// growth lookup, molecule = `Cc1ccc(CNc2ccc(Cl)cc2NCc2ccc(C)c(O)c2)cc1O` , result: 21.9

// growth lookup, molecule = `N#Cc1c(-c2ccc(Cl)cc2)nc(SCC(=O)NC2=NN=C(c3ccccc3)CS2)[nH]c1=O` , result: 77.3

// growth lookup, molecule = Cc1cccc(N2CCN(CC(O)COc3ccc(Cl)cc3)CC2)c1 (stereo unspecified) , result: 95.7
